# Experiment Description: self-splicing fitness, log relative to wild type (ln ratio); higher = more splicing; Tetrahymena group I intron in knt gene, E. coli kanamycin selection, DiMSum; sequences stand for … in CUCUCU…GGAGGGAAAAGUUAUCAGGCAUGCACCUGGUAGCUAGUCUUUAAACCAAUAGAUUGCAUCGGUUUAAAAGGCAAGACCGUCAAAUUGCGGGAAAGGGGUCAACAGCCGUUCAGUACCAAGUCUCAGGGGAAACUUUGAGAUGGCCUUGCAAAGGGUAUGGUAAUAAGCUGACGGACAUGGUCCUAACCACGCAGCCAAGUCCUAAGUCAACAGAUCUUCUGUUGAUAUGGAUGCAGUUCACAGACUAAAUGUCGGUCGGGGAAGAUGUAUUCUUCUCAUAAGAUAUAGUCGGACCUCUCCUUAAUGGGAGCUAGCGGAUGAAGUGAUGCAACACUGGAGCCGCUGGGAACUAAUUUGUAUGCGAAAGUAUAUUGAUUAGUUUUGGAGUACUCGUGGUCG;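 also: selection with 25 µg/mL kanamycin versus none on LB agar overnight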
# Assay Setup: 37 °C
Known self-splicing fitness (ln) of a selection of sequences
Keep it simple and answer with nothing but the number.

Before answering, review these 4 worked examples.
- AGCUAGCAAUAUUACGUAUU: -1.35
- CCGGAGCAAUAUUACGAGGG: -1.47
- ACCAAGCAAUAUUACGCUGG: -2.72
- ACGAAGCAAUAUUACGGACG: -0.00573

input: Find the recorded self-splicing fitness (ln) belonging to ACUCAGCAAUAUUACGAACA and report it.
output: -0.892

input: Also, UAACAGCAAUAUUACGUCUU please.
output: -0.0714
